tested on: multidrug-resistant Pseudomonas aeruginosa; conditions: 4 h
No end group written: not given here.
Hi! Could you tag entries with MBC value (μg/ml) against multidrug-resistant Pseudomonas aeruginosa below 40 µg/mL as 1 (yes), and those at or above as 0 (no)? Much appreciated.

Task: Report whether reported MBC value (μg/ml) against multidrug-resistant Pseudomonas aeruginosa is lower than 40 µg/mL (strictly) for KTMMQKGGTFGTFMAIGMGIR [KU-5878-S63K]
Result: 0 (no)

Task: Report whether reported MBC value (μg/ml) against multidrug-resistant Pseudomonas aeruginosa is lower than 40 µg/mL (strictly) for KTMMQSGGTFGTFMAIGMGIK [KU-5878-R78K]
Result: 0 (no)

Task: Report whether reported MBC value (μg/ml) against multidrug-resistant Pseudomonas aeruginosa is lower than 40 µg/mL (strictly) for KKMMQSGGTFGTFMAIGMGIR [KU-5878-T59K]
Result: 0 (no)

Task: Report whether reported MBC value (μg/ml) against multidrug-resistant Pseudomonas aeruginosa is lower than 40 µg/mL (strictly) for KKMMKSGGTFGTFMAIGMGIR [KU-5878-K2]
Result: 1 (yes)

Task: Report whether reported MBC value (μg/ml) against multidrug-resistant Pseudomonas aeruginosa is lower than 40 µg/mL (strictly) for KKMMKKGGTFGTFMAIGMGIR [KU-5878-K3]
Result: 1 (yes)

Task: Report whether reported MBC value (μg/ml) against multidrug-resistant Pseudomonas aeruginosa is lower than 40 µg/mL (strictly) for KRMMQSGGTFGTFMAIGMGIR [KU-5878-T59R]
Result: 1 (yes)

Task: Report whether reported MBC value (μg/ml) against multidrug-resistant Pseudomonas aeruginosa is lower than 40 µg/mL (strictly) for KTMMQSGGKFGTFMAIGMGIR [KU-5878-T66K]
Result: 0 (no)

Task: Report whether reported MBC value (μg/ml) against multidrug-resistant Pseudomonas aeruginosa is lower than 40 µg/mL (strictly) for KTMMQSGGTFGTFMAIGMGIR [KU-5878]
Result: 0 (no)

Task: Report whether reported MBC value (μg/ml) against multidrug-resistant Pseudomonas aeruginosa is lower than 40 µg/mL (strictly) for KKMMKKGGKFGTFMAIGMGIR [KU-5878-K4]
Result: 1 (yes)

Task: Report whether reported MBC value (μg/ml) against multidrug-resistant Pseudomonas aeruginosa is lower than 40 µg/mL (strictly) for ATMMQSGGTFGTFMAIGMGIR [KU-5878-K58A]
Result: 0 (no)

Task: Report whether reported MBC value (μg/ml) against multidrug-resistant Pseudomonas aeruginosa is lower than 40 µg/mL (strictly) for KTMMKSGGTFGTFMAIGMGIR [KU-5878-Q62K]
Result: 0 (no)

Task: Report whether reported MBC value (μg/ml) against multidrug-resistant Pseudomonas aeruginosa is lower than 40 µg/mL (strictly) for KTMMQSGGTFGKFMAIGMGIR [KU-5878-T69K]
Result: 0 (no)

Task: Report whether reported MBC value (μg/ml) against multidrug-resistant Pseudomonas aeruginosa is lower than 40 µg/mL (strictly) for RTMMQSGGTFGTFMAIGMGIR [KU-5878-K58R]
Result: 0 (no)

Task: Report whether reported MBC value (μg/ml) against multidrug-resistant Pseudomonas aeruginosa is lower than 40 µg/mL (strictly) for KTMMQSGGTFGTFMAIGMGIA [KU-5878-R78A]
Result: 0 (no)

* * *

Provide the recorded MBC value (μg/ml) against Pseudomonas aeruginosa for the entries that follow.
test system: Pseudomonas aeruginosa (ATCC 27853); assay type: cell-based; conditions: ATCC 27853, 1 h
No end group written: not given here.
Expressed in µg/mL, but write only the number.

Task: Recall the recorded MBC value (μg/ml) against Pseudomonas aeruginosa for KTMMQSGGTFGTFMAIGMGIRC [KU-5879] with Pseudomonas aeruginosa (ATCC 27853) and state it.
Result: 150

Task: Recall the recorded MBC value (μg/ml) against Pseudomonas aeruginosa for KKMMKKGGKFGTFMAIGMGIR [KU-5878-K4] with Pseudomonas aeruginosa (ATCC 27853) and state it.
Result: 4

Task: Recall the recorded MBC value (μg/ml) against Pseudomonas aeruginosa for KTMMQSGGTFGTFMGIGMGIR [KU-5878-A72G] with Pseudomonas aeruginosa (ATCC 27853) and state it.
Result: 350

Task: Recall the recorded MBC value (μg/ml) against Pseudomonas aeruginosa for KKMMQSGGTFGTFMAIGMGIR [KU-5878-T59K] with Pseudomonas aeruginosa (ATCC 27853) and state it.
Result: 50

Task: Recall the recorded MBC value (μg/ml) against Pseudomonas aeruginosa for KTMMQSGGTFGTFMAWGMGIR [KU-5878-I73W] with Pseudomonas aeruginosa (ATCC 27853) and state it.
Result: 300

Task: Recall the recorded MBC value (μg/ml) against Pseudomonas aeruginosa for KTMMQSGGTFGTFMAIGMGIR [KU-5878] with Pseudomonas aeruginosa (ATCC 27853) and state it.
Result: 100

Task: Recall the recorded MBC value (μg/ml) against Pseudomonas aeruginosa for GKTMMQSGGTFGTFMAIGMGIRC [KU-5779] with Pseudomonas aeruginosa (ATCC 27853) and state it.
Result: 280

Task: Recall the recorded MBC value (μg/ml) against Pseudomonas aeruginosa for GKTMMQSGGTFGTFMAIGMGIR [KU-5778] with Pseudomonas aeruginosa (ATCC 27853) and state it.
Result: 300

Task: Recall the recorded MBC value (μg/ml) against Pseudomonas aeruginosa for KKMMKKGGTFGTFMAIGMGIR [KU-5878-K3] with Pseudomonas aeruginosa (ATCC 27853) and state it.
Result: 4

Task: Recall the recorded MBC value (μg/ml) against Pseudomonas aeruginosa for KTMMQSGGKFGTFMAIGMGIR [KU-5878-T66K] with Pseudomonas aeruginosa (ATCC 27853) and state it.
Result: 80

Task: Recall the recorded MBC value (μg/ml) against Pseudomonas aeruginosa for KTMMQSGGTWGTFMAIGMGIR [KU-5878-F67W] with Pseudomonas aeruginosa (ATCC 27853) and state it.
Result: 80

Task: Recall the recorded MBC value (μg/ml) against Pseudomonas aeruginosa for KTMMQSGGTFGTFMAIGMGIR-NH2 [KU-5878-NH2] with Pseudomonas aeruginosa (ATCC 27853) and state it.
Result: 60

Task: Recall the recorded MBC value (μg/ml) against Pseudomonas aeruginosa for KTMMQKGGTFGTFMAIGMGIR [KU-5878-S63K] with Pseudomonas aeruginosa (ATCC 27853) and state it.
Result: 60
